Catalogue of Relative Vmax readings, one per entry.
SYSTEM TESTED: UniProt:P12928
Sequence (P12928 whole entry): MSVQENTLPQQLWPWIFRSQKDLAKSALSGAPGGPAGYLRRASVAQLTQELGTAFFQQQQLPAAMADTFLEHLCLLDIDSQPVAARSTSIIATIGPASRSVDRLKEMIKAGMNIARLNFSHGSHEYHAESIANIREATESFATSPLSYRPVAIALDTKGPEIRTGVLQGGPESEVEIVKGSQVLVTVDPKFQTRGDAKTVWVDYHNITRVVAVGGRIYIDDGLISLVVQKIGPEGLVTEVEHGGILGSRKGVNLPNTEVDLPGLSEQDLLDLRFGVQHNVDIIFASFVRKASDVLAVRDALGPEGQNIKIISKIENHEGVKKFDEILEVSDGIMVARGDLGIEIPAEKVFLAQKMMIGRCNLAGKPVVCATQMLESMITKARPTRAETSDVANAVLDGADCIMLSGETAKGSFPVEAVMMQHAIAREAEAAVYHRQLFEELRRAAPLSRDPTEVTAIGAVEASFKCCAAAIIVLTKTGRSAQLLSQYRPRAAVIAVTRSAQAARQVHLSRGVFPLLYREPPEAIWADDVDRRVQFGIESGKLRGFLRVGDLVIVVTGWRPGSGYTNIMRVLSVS
ASSAY SUMMARY: Relative half maximal velocity of Pyruvate kinase and Phosphoenolpyruvate
QUANTITY MEASURED: Relative Vmax

>>> print(df.to_string())
                                   molecule  quantity_measured  qualifying_sign  measured_result
0  CO[C@@H]1[C@H](O)[C@@H](COP(=O)(O)OP(=O)(O)O)O[C@H]1n1cnc2c(N)ncnc21      Relative Vmax                =              100
1  CO[C@H]1[C@@H](O)[C@H](n2cnc3c(N)ncnc32)O[C@@H]1COP(=O)(O)OP(=O)(O)O      Relative Vmax                >                0
2  CNc1nc(N)c2ncn(C3O[C@H](COP(=O)(O)OP(=O)(O)O)[C@@H](O)[C@H]3O)c2n1 (some centres undefined)      Relative Vmax                =               86
3  CCSc1nc2c(N)ncnc2n1C1O[C@H](COP(=O)(O)OP(=O)(O)O)[C@@H](O)[C@H]1O (some centres undefined)      Relative Vmax                =                0

====

Species: Rattus norvegicus
ASSAY SUMMARY: Relative half maximal velocity of Pyruvate kinase to Phosphoenolpyruvate was determined
Catalogue of Relative Vmax readings, one per entry.
QUANTITY MEASURED: Relative Vmax

In [3]: df
Out[3]:
                                   compound  measured_result
0  Nc1nc(N)c2ncn(C3O[C@H](COP(=O)(O)OP(=O)(O)O)[C@@H](O)[C@H]3O)c2n1 (stereo partly specified)               90
1  CCNc1nc2c(N)ncnc2n1C1O[C@H](COP(=O)(O)OP(=O)(O)O)[C@@H](O)[C@H]1O (stereo partly specified)              0.7
2  CO[C@@H]1[C@H](O)[C@@H](COP(=O)(O)OP(=O)(O)O)O[C@H]1n1cnc2c(N)ncnc21               94
3  CSc1nc2c(N)ncnc2n1C1O[C@H](COP(=O)(O)OP(=O)(O)O)[C@@H](O)[C@H]1O (stereo partly specified)                0
4  C=CC[C@]1(COP(=O)(O)OP(=O)(O)O)OC(n2cnc3c(N)ncnc32)[C@H](O)[C@@H]1O (stereo partly specified)               11
5  C[C@H](OP(=O)(O)OP(=O)(O)O)[C@H]1OC(n2cnc3c(N)ncnc32)[C@H](O)[C@@H]1O (stereo partly specified)               15

====

Species: Rattus norvegicus
ASSAY SUMMARY: Relative inhibitory potency as ratio of muscle and liver pyruvate kinases
Record yes whenever Relative inhibitory potency is at 0.9 or higher; record no when lower.

                                   compound  label
0  CSc1nc2c(N)ncnc2n1C1O[C@H](COP(=O)(O)OP(=O)(O)O)[C@@H](O)[C@H]1O (stereo partly drawn)    yes
1  C[C@H](OP(=O)(O)OP(=O)(O)O)[C@H]1OC(n2cnc3c(N)ncnc32)[C@H](O)[C@@H]1O (stereo partly drawn)     no
2  CSc1nc(N)c2ncn([C@@H]3O[C@H](COP(=O)(O)OP(=O)(O)O)[C@@H](O)[C@H]3O)c2n1    yes
3  CCSc1nc2c(N)ncnc2n1C1O[C@H](COP(=O)(O)OP(=O)(O)O)[C@@H](O)[C@H]1O (stereo partly drawn)    yes
4  CC1O[C@@H]2[C@H](O1)[C@@H](COP(=O)(O)OP(=O)(O)O)O[C@H]2n1cnc2c(N)ncnc21 (stereo partly drawn)    yes
5  CCCNc1nc2c(N)ncnc2n1C1O[C@H](COP(=O)(O)OP(=O)(O)O)[C@@H](O)[C@H]1O (stereo partly drawn)    yes
6  CO[C@@H]1[C@H](O)[C@@H](COP(=O)(O)OP(=O)(O)O)O[C@H]1n1cnc2c(N)ncnc21     no
7  CC(=O)N(C)CCCCN(C)c1ncnc2c1ncn2[C@@H]1O[C@H](COP(=O)(O)OP(=O)(O)O)[C@@H](O)[C@H]1O     no
